Where do the numbers come from? From patent US7138361B2.

system: barnyardgrass (Echinochloa crus-galli); assay: Test C flooded paddy test; assay type: in vivo; settings: flooded paddy test, Rate 125 g/ha; scale 0 to 100 (0 no effect, 100 complete control)
Reported Property: Plant response rating, Barnyardgrass
Answers are plain numbers.

Field: example entries. Status: answers known.
# Molecule, Reported Property, Readout Number
rows = [
    ("CCC(C)c1ccn(C2OCN(c3cccc(OC(F)F)c3)C2=O)n1 (centres unmarked) [Compound 134]", "Plant response rating, Barnyardgrass", 100),
    ("CC(C)(C)c1ccn(C2CCN(c3cc(Cl)cc(Cl)c3)C2=O)n1 (centres unmarked) [Compound 55]", "Plant response rating, Barnyardgrass", 50),
    ("CCCCC(C)c1ccn(C2OCN(c3cccc(OC(F)(F)F)c3)C2=O)n1 (centres unmarked) [Compound 97]", "Plant response rating, Barnyardgrass", 40),
    ("O=C1C(n2ccc(C3CC3)n2)OCN1c1cccc(C(F)(F)F)c1 (centres unmarked) [Compound 28]", "Plant response rating, Barnyardgrass", 0),
]

# returns recorded Plant response rating, Barnyardgrass (system: barnyardgrass (Echinochloa crus-galli)) for CCC(C)Oc1ccn(C2CCN(c3cccc(C(F)(F)F)c3)C2=O)n1 (centres unmarked) [Compound 58]
0

====

test system: smallflower flatsedge (Cyperus difformis); assay: Test C flooded paddy test; type: in vivo; conditions: flooded paddy test, Rate 125 g/ha; scale 0 to 100 (0 no effect, 100 complete control)
Exercise: state measured Plant response rating, Flatsedge for each of the molecules provided.
Answers are plain numbers.

# Molecule, Reported Property, Readout Number
records = [
    ("CC(C)(C)c1ccn(C2CCN(c3cccc(S(C)(=O)=O)c3)C2=O)n1 (stereo not drawn)", "Plant response rating, Flatsedge", 30),
]

// each molecule listed below needs its Plant response rating, Flatsedge
1. CCCC(C)c1ccn(C2CCN(c3ccc(Cl)c(OC)c3)C2=O)n1 (stereo not drawn)
2. CCCC(C)c1ccn(C2SCN(c3cccc(OC(F)(F)F)c3)C2=O)n1 (stereo not drawn)
3. Cc1cc(N2CCC(n3ccc(C(C)(C)C)n3)C2=O)ccc1Cl (stereo not drawn)
4. CC1(c2ccn(C3OCN(c4cccc(C(F)(F)F)c4)C3=O)n2)CC1 (stereo not drawn)
5. O=C1C(n2ccc(C3CC3)n2)SCN1c1cccc(C(F)(F)F)c1 (stereo not drawn)
6. CC(C)c1ccn(C2SCN(c3cccc(OC(F)(F)F)c3)C2=O)n1 (stereo not drawn)
7. CCC(CC)c1ccn(C2CCN(c3ccc(Br)c(OC)c3)C2=O)n1 (stereo not drawn)

[100, 100, 90, 90, 90, 100, 95]

Could you share which Plant response rating, Flatsedge value was measured for CCC(CC)c1ccn(C2CCN(c3ccc(C)c(OC)c3)C2=O)n1 (stereo not drawn) ?
90

====

tested on: morningglory (Ipomoea hederacea); assay: Test C postemergence; type: in vivo; details: Rate 62 g/ha, scale 0 to 100
Reported Property: Plant response rating, Morningglory
Answers are plain numbers.

# Molecule, Plant response rating, Morningglory
measured = [
    ("CCC(C)c1ccn(C2CCN(c3ccc(Br)c(OC)c3)C2=O)n1 (stereo not drawn)", 20),
    ("Cc1ccc(N2CCC(n3ccc(C(C)(C)C)n3)C2=O)cc1OCCCl (stereo not drawn)", 100),
    ("CCC(CC)c1ccn(C2OCN(c3cccc(OC(F)(F)F)c3)C2=O)n1 (stereo not drawn)", 50),
    ("COc1cc(N2CCC(n3ccc(C(C)(C)C)n3)C2=O)ccc1Br (stereo not drawn)", 70),
    ("COc1cc(N2CCC(n3ccc(C(C)C)n3)C2=O)ccc1Cl (stereo not drawn)", 0),
]

Please look at the following molecule next.
Could you share which Plant response rating, Morningglory value was measured for CCCC(C)c1ccn(C2OCN(c3cccc(OC(F)(F)F)c3)C2=O)n1 (stereo not drawn) ?
0
